Reported AC50 values follow for various compounds
- Target Or Test System: human PAH with the R408W mutation (Homo sapiens, UniProt P00439, R408W)
- Construct: expressed in transfected cells
- Sequence (P00439 whole entry R408W): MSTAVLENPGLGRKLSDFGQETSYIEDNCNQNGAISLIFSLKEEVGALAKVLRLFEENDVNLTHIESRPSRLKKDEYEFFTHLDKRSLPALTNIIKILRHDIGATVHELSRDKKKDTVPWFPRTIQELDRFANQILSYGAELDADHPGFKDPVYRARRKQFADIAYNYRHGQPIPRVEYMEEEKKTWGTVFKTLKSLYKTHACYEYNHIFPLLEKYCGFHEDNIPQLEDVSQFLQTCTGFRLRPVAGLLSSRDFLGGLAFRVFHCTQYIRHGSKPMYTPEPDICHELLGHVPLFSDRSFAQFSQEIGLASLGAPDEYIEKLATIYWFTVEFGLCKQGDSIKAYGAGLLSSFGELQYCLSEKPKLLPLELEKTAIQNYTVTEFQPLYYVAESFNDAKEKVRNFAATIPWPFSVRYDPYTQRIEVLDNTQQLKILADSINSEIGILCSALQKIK
- Assay Text: Cell Based Phenylalanine Flux Assay
- Measurement Conditions: A375 cells expressing human R408W PAH; 24 hrs compound incubation; 13C-Tyrosine by LC-MS; average where tested multiple times; read-out: AC50

INSERT INTO assay_data (mol_smiles, test_readout, experimental_result) VALUES
  ('O=C(c1cnn2ccc(Cl)cc12)N1CCc2[nH]cnc2[C@@H]1c1nc2cc(F)ccc2s1', 'AC50', '1 to 5 µM'),
  ('O=C(c1ncc(Cl)s1)N1CCc2[nH]cnc2[C@@H]1c1nc2c(F)cccc2s1', 'AC50', '1 to 5 µM'),
  ('O=C(CCc1nccs1)N1CCc2[nH]cnc2[C@H]1c1nc2ccccc2[nH]1', 'AC50', '0.5 to 1 µM'),
  ('O=C(CCc1nccs1)N1CCc2[nH]cnc2[C@@H]1c1nc2cccc(Br)c2s1', 'AC50', '1 to 5 µM'),
  ('CC(C)(O)Cn1cc(C(=O)N2CCc3[nH]cnc3[C@@H]2c2nc3c(F)cccc3s2)c(Cl)n1', 'AC50', '1 to 5 µM'),
  ('O=C(c1oc(CCC2CC2)nc1C(F)(F)F)N1CCCc2[nH]cnc2[C@@H]1c1nc2ccccc2s1', 'AC50', '0.5 to 1 µM');

-- ask Input O=C(c1ncc(Cl)s1)N1CCc2[nH]cnc2[C@H]1c1nc2cc(F)ccc2s1 , output reported AC50.
-- reply 1 to 5 µM

// provenance: patent US20250171438A1
